experiment: Quantitative High-Throughput drug screen in 47 multiple myeloma cell lines against the NCATS MIPE library collection: KMS26_JCRB cell viability assay (AID 1918975); conditions: KMS26 myeloma cells viability, CellTiter-Glo ATP, 48 h; series mostly up to 45.8 µM; also: nearly all actives have a fitted effect of over 45% in size
Records with an inconclusive call do not appear. Activity calls are given as the source filed them. Calls follow the shape of the dose curve; as a rule, active = well fitted cell-killing curve with a large enough effect; inconclusive = small, poorly fitted or top-dose-only effect, or effect the other way; inactive = no such curve, though single readings can be large or run the other way.
Possible outcomes: active, inactive

# COMPOUND, CLASS_ASSIGNMENT
measured = [
    ("CN(C)CC[C@H](CSc1ccccc1)Nc1ccc(S(=O)(=O)NC(=O)c2ccc(N3CCN(Cc4ccccc4-c4ccc(Cl)cc4)CC3)cc2)cc1[N+](=O)[O-]", "active"),
    ("O=C(Nc1ncc(SCCN2CCCC2)s1)[C@]1(c2ccc(S(=O)(=O)C3CC3)cc2)C[C@@H]1C1CCCCC1", "active"),
    ("Nc1[nH]nc2nnc(-c3c(-c4ccccc4)nn4ccccc34)cc12", "inactive"),
    ("Cc1cc2c(cc1C1(c3ccc(C(=O)O)cn3)CC1)C(C)(C)CCC2(C)C", "active"),
    ("CN1CCc2c(n(Cc3ccc(C(=O)NO)cc3)c3ccccc23)C1", "active"),
    ("OC[C@H]1O[C@@H](O[C@H]2[C@@H](O)[C@@](O)(CO)O[C@@H]2CO)[C@H](O)[C@@H](O)[C@@H]1O", "inactive"),
    ("CC1CNc2c(cccc2S(=O)(=O)N[C@@H](CCCN=C(N)N)C(=O)N2CC[C@@H](C)C[C@@H]2C(=O)O)C1 (stereo partly drawn)", "inactive"),
    ("Clc1ccc(C2(c3ccc(-c4cn[nH]c4)cc3)CCNCC2)cc1", "active"),
]

###

experiment: Quantitative High-Throughput drug screen in 47 multiple myeloma cell lines against the NCATS MIPE library collection: H1112_PLB cell viability assay (AID 1918967; also: nearly all actives have a fitted effect of over 30% in size); conditions: H1112 myeloma cells viability, ATP luminescence, 48 h; series mostly up to 45.8 µM
Records with an inconclusive call do not appear. The source made the active and inactive calls. The call rests on the fitted dose curve; in most records, active means well fitted cell-killing curve with a large enough effect; inconclusive means small, poorly fitted or top-dose-only effect, or effect the other way; inactive means no such curve, though single readings can be large or run the other way.
Possible outcomes: 1.0 for active, 0.0 for inactive

# COMPOUND, CLASS_ASSIGNMENT
rows = [
    ("NCC1CCC(C(=O)O)CC1 (stereo not drawn)", 0.0),
    ("CC1(C)OC2CC3C4CC(F)C5=CC(=O)C=CC5(C)C4C(O)CC3(C)[C@]2(C(=O)CO)O1 (stereo partly drawn)", 0.0),
    ("N[C@@H](CC(=O)N1CCn2c(nnc2C(F)(F)F)C1)Cc1cc(F)c(F)cc1F", 0.0),
    ("N#CC(c1ccnc(NCCc2cccnc2)n1)c1nc2ccccc2s1 (stereo not drawn)", 1.0),
    ("Cc1cc2nc3c(=O)[nH]c(=O)nc-3n(CC(O)C(O)C(O)CO)c2cc1C (stereo not drawn)", 0.0),
    ("CC(C)(F)C[C@H](N[C@@H](c1ccc(-c2ccc(S(C)(=O)=O)cc2)cc1)C(F)(F)F)C(=O)NC1(C#N)CC1", 0.0),
    ("OC[C@H]1O[C@@H](O[C@H]2[C@@H](O)[C@@](O)(CO)O[C@@H]2CO)[C@H](O)[C@@H](O)[C@@H]1O", 0.0),
    ("COc1ccc2cc1Oc1ccc(cc1)C[C@H]1c3cc(c(OC)cc3CCN1C)Oc1c(OC)c(OC)cc3c1[C@H](C2)N(C)CC3", 1.0),
    ("CNC1CCC(N(Cc2cccc(-c3ccncc3)c2)C(=O)c2sc3ccccc3c2Cl)CC1 (stereo not drawn)", 1.0),
    ("O=C1CCCC(=O)C1C(=O)c1ccc(C(F)(F)F)cc1[N+](=O)[O-]", 0.0),
    ("NC(N)=Nc1nc(CSCCC(N)=NS(N)(=O)=O)cs1", 1.0),
    ("CC1CCN(c2cc(N3CCN(C)CC3)ccc2NC(=O)c2cc(C#N)c[nH]2)CC1", 0.0),
    ("CCC=CC[C@H]1C(=O)CC[C@@H]1CC(=O)OC", 0.0),
    ("CCC[C@@H](NC(=O)[C@@H]1[C@H]2CCC[C@@H]2CN1C(=O)[C@@H](NC(=O)[C@@H](NC(=O)c1cnccn1)C1CCCCC1)C(C)(C)C)C(=O)C(=O)NC1CC1", 1.0),
    ("CCCCn1c(=O)n(Cc2ccccc2F)c(=O)c2[nH]c(Cc3ccc(NC(C)=O)cc3)nc21", 0.0),
    ("Nc1ccc(-c2ccc3ncc4ccc(=O)n(-c5cccc(C(F)(F)F)c5)c4c3c2)cn1", 1.0),
    ("Clc1ccc(C2(c3ccc(-c4cn[nH]c4)cc3)CCNCC2)cc1", 1.0),
    ("CC(C)C[C@H](NC(=O)c1cc2ccccc2s1)C(=O)N1CCN(C(=O)[C@H](CO)NS(=O)(=O)c2ccc(Cl)cc2Cl)CC1", 1.0),
]
